- targetOfAssay: UniProt:P04585
- testMethodNotes: reverse transcriptase enzyme activity
- Format: biochemical
measuredEndpoint: IC50

[[record]]
smilesinput = "CN(CCCNc1ccc2ncn3c4ccccc4c(=O)c1c23)CCCNc1ccc2nnn3c4ccccc4c(=O)c1c23"
measuredendpoint = "IC50"
measured = "> 100 µM"

[[record]]
smilesinput = "O=c1c2ccccc2n2cnc3ccc(NCCCN4CCN(CCCNc5ccc6nnn7c8ccccc8c(=O)c5c67)CC4)c1c32"
measuredendpoint = "IC50"
measured = "35 µM"

[[record]]
smilesinput = "CN(CCCNc1ccc2ncn3c4ccccc4c(=O)c1c23)CCCNc1ccc2ncn3c4ccccc4c(=O)c1c23"
measuredendpoint = "IC50"
measured = "> 100 µM"

[[record]]
smilesinput = "O=c1c2ccccc2n2nnc3ccc(NCCCN4CCN(CCCNc5ccc6nnn7c8ccccc8c(=O)c5c67)CC4)c1c32"
measuredendpoint = "IC50"
measured = "> 100 µM"


###

- targetOfAssay: HIV-1 integrase (Human immunodeficiency virus type 1 group M subtype B)
- testMethodNotes: 3'-processing and strand transfer with recombinant integrase
measuredEndpoint: IC50

[[record]]
molecule = "O=c1c2ccccc2n2nnc3ccc(NCCCN4CCN(CCCNc5ccc6nnn7c8ccccc8c(=O)c5c67)CC4)c1c32 [temacrazine]"
measuredendpoint = "IC50"
measured = "10 to 100 nM"


###

- targetOfAssay: HIV-1 reverse transcriptase (Human immunodeficiency virus type 1 group M subtype B, UniProt P04585)
- testMethodNotes: reverse transcriptase enzyme activity
- Type: biochemical
- testContext: rAdT Template/primer, control compound; read-out: I50 RT Enzyme Activity
pIC50: −log10 of the molar value.
measuredEndpoint: pIC50

[[record]]
molecule = "Cc1cn([C@H]2C[C@H](N=[N+]=[N-])[C@@H](CO[P@](=O)(O)O[P@](=O)(O)OP(=O)(O)O)O2)c(=O)[nH]c1=O [Compound A2TTP, reference compound]"
measured = 7.57


###

- targetOfAssay: HIV-1 reverse transcriptase (Human immunodeficiency virus type 1 group M subtype B, UniProt P04585)
- testMethodNotes: reverse transcriptase enzyme activity
- Type: biochemical
- testContext: read-out: I50 RT Enzyme Activity; rCdG Template/primer
pIC50: −log10 of the molar value.
measuredEndpoint: pIC50

[[record]]
smilesinput = "O=c1c2ccccc2n2nnc3ccc(NCCCN4CCN(CCCNc5ccc6nnn7c8ccccc8c(=O)c5c67)CC4)c1c32"
measured = "< 4.00"

